Just for reference, patent US7612087B2 is where these values come from.

tested on: E. coli 250SJ1 (Tem7); assay: MIC, micro-dilution in liquid medium, β-lactamine with product at 5 mg/l; format: cell-based; settings: compound at 5 mg/l; Trial 5, 250SJ1 E. coli Tem7; 24 hours at 37° C.
Quantity kind: MIC of Cefotaxime in combination with the compound

Some compounds with known MIC of Cefotaxime in combination with the compound results, for comparison:
Compound	Test value
NC(=O)c1cccc(NC(=O)[C@H]2CC[C@@H]3CN2C(=O)N3OS(=O)(=O)[O-])c1.[Na+] (relative stereo) [Example 39]	<=0.04 μg/ml
O=C(NCCc1ccncc1)[C@H]1CC[C@@H]2CN1C(=O)N2OS(=O)(=O)[O-].[Na+] (relative stereo) [Example 37]	0.08 mg/L
O=C(OCCc1ccncc1)[C@H]1CC[C@@H]2CN1C(=O)N2OS(=O)(=O)[O-].[Na+] (relative stereo) [Example 49]	<=0.04 μg/ml
NC(=O)COC(=O)C1CCC2CN1C(=O)N2OS(=O)(=O)O (centres unmarked) [Example 48]	<=0.04 μg/ml
O=C(NCc1ccccc1)[C@H]1CC[C@@H]2CN1C(=O)N2OS(=O)(=O)[O-].[Na+] (relative stereo) [Example 34]	<=0.04 μg/ml

Read the next record carefully.
Which MIC of Cefotaxime in combination with the compound is listed for O=C(NCc1cccnc1)C1CCC2CN1C(=O)N2OS(=O)(=O)O (centres unmarked) [Example 43] ?
<=0.04 μg/ml

----------
tested on: S. aureus 011GO66 (PeniR); test: MIC, micro-dilution in liquid medium, β-lactamine with product at 5 mg/l; assay type: cell-based; conditions: compound at 5 mg/l; Trial 1, 011GO66 peniR; 24 hours at 37° C.
Quantity kind: MIC of Piperacillin in combination with the compound (µg/mL)
State just the number; it will be interpreted in µg/mL.

Molecule	Test value
NC(=O)COC(=O)C1CCC2CN1C(=O)N2OS(=O)(=O)O (stereo not drawn)	1.2
O=C(NCc1ccccc1)[C@H]1CC[C@@H]2CN1C(=O)N2OS(=O)(=O)[O-].[Na+] (relative stereo)	0.6
NC(=O)c1cccc(NC(=O)[C@H]2CC[C@@H]3CN2C(=O)N3OS(=O)(=O)[O-])c1.[Na+] (relative stereo)	1.2
NC(=O)CNC(=O)C1CCC2CN1C(=O)N2OS(=O)(=O)O (stereo not drawn)	1.2
NC(=O)Nc1cccc(NC(=O)[C@H]2CC[C@@H]3CN2C(=O)N3OS(=O)(=O)[O-])c1.[Na+] (relative stereo)	0.6

Field request: MIC of Piperacillin in combination with the compound | item: O=C(NCCc1ccccn1)[C@H]1CC[C@@H]2CN1C(=O)N2OS(=O)(=O)[O-].[Na+] (relative stereo)
0.6

If you can, please state the reported MIC of Piperacillin in combination with the compound value of NC(=O)[C@@H]1CC[C@@H]2CN1C(=O)N2OS(=O)(=O)O (relative stereo) .
1.2

----------
# pIC50 per record follows
target: β-lactamase P99 (Enterobacter cloacae); construct: The β-lactamases are isolated from bacterial strains which are resistant to penicillins and cephalosporins; endogenous in cells; host or cells: Enterobacter cloacae 293HT6 (natural producer; French-press lysate, 100,000 g supernatant); test: biochemical
Scale note: pIC50 = -log10(concentration in M).

Compound	pIC50
NC(=O)COC(=O)C1CCC2CN1C(=O)N2OS(=O)(=O)O (centres unmarked)	6.92

Any idea what pIC50 was measured for NC(=O)C(Cc1ccccc1)NC(=O)C1CCC2CN1C(=O)N2OS(=O)(=O)O (centres unmarked) ?
7.00

Which pIC50 value is on record for NC(=O)[C@@H]1CC[C@@H]2CN1C(=O)N2OS(=O)(=O)O (relative stereo) ?
6.48

Which value of pIC50 has been reported for O=C(NCc1cccnc1)C1CCC2CN1C(=O)N2OS(=O)(=O)O (centres unmarked) in the records?
7.12

Requested read-out: pIC50. Entry: NC(=O)CNC(=O)C1CCC2CN1C(=O)N2OS(=O)(=O)O (centres unmarked)
7.22

----------
tested on: E. coli 250HT22 (Tem2); test: MIC, micro-dilution in liquid medium, β-lactamine with product at 5 mg/l; type: cell-based; conditions: compound at 5 mg/l; Trial 3, 250HT22 Tem2; 24 hours at 37° C.
Quantity kind: MIC of Piperacillin in combination with the compound

Compound	Target desc	Test value
CN(C)c1ccc(NC(=O)[C@H]2CC[C@@H]3CN2C(=O)N3OS(=O)(=O)[O-])cc1.[Na+] (relative stereo) [Example 40]	E. coli 250HT22 (Tem2)	>40 µg/mL
NC(=O)Nc1cccc(NC(=O)[C@H]2CC[C@@H]3CN2C(=O)N3OS(=O)(=O)[O-])c1.[Na+] (relative stereo) [Example 46]	E. coli 250HT22 (Tem2)	>40 µg/mL
O=C(NCCc1ccccn1)[C@H]1CC[C@@H]2CN1C(=O)N2OS(=O)(=O)[O-].[Na+] (relative stereo) [Example 38]	E. coli 250HT22 (Tem2)	>40 µg/mL
NC(=O)COC(=O)C1CCC2CN1C(=O)N2OS(=O)(=O)O (stereo not shown) [Example 48]	E. coli 250HT22 (Tem2)	2.5 µg/mL
O=C(NCCc1ccncc1)[C@H]1CC[C@@H]2CN1C(=O)N2OS(=O)(=O)[O-].[Na+] (relative stereo) [Example 37]	E. coli 250HT22 (Tem2)	>40 µg/mL
CN(C)c1cccc(NC(=O)[C@H]2CC[C@@H]3CN2C(=O)N3OS(=O)(=O)[O-])c1.[Na+] (relative stereo) [Example 41]	E. coli 250HT22 (Tem2)	>40 µg/mL

Read the next record carefully.
I'm curious: which MIC of Piperacillin in combination with the compound was measured for O=C(NCc1ccccn1)[C@H]1CC[C@@H]2CN1C(=O)N2OS(=O)(=O)[O-].[Na+] (relative stereo) [Example 35] tested on E. coli 250HT22 (Tem2)?
20 µg/mL

----------
tested on: E. coli 250HT22 (Tem2); test: MIC, micro-dilution in liquid medium, β-lactamine with product at 5 mg/l; type: cell-based; settings: compound at 5 mg/l; Trial 3, 250HT22 Tem2; 24 hours at 37° C.
Quantity kind: MIC of Piperacillin in combination with the compound (µg/mL)
I only need the number, in µg/mL, no unit after it.

Consider the worked cases shown below.
Compound	Test value
NC(=O)[C@@H]1CC[C@@H]2CN1C(=O)N2OS(=O)(=O)O (relative stereo) [Example 33]	0.6
NC(=O)C(NC(=O)[C@H]1CC[C@@H]2CN1C(=O)N2OS(=O)(=O)[O-])c1ccccc1.[Na+] (relative stereo) [Example 47]	20

Turning now to a further compound:
Looking for the measured MIC of Piperacillin in combination with the compound of O=C(OCCc1ccncc1)[C@H]1CC[C@@H]2CN1C(=O)N2OS(=O)(=O)[O-].[Na+] (relative stereo) [Example 49] , can you help?
2.5

----------
test system: S. aureus 011GO66 (PeniR); test: MIC, micro-dilution in liquid medium, β-lactamine with product at 5 mg/l; type: cell-based; conditions: compound at 5 mg/l; Trial 1, 011GO66 peniR; 24 hours at 37° C.
Catalogue of molecules with associated MIC of Piperacillin in combination with the compound
The reply should contain only the number, in µg/mL.

These recorded examples may help you get a feel for the data.
Molecule	Target desc	Unit of measurement	Test value
O=C(NCc1ccccn1)[C@H]1CC[C@@H]2CN1C(=O)N2OS(=O)(=O)[O-].[Na+] (relative stereo)	S. aureus 011GO66 (PeniR)	µg/mL	1.2
CN(C)c1ccc(NC(=O)[C@H]2CC[C@@H]3CN2C(=O)N3OS(=O)(=O)[O-])cc1.[Na+] (relative stereo)	S. aureus 011GO66 (PeniR)	µg/mL	0.6
O=C(OCCc1ccccn1)[C@H]1CC[C@@H]2CN1C(=O)N2OS(=O)(=O)[O-].[Na+] (relative stereo)	S. aureus 011GO66 (PeniR)	µg/mL	1.2
NC(=O)C(NC(=O)[C@H]1CC[C@@H]2CN1C(=O)N2OS(=O)(=O)[O-])c1ccccc1.[Na+] (relative stereo)	S. aureus 011GO66 (PeniR)	µg/mL	0.6
O=C(OCCc1ccncc1)[C@H]1CC[C@@H]2CN1C(=O)N2OS(=O)(=O)[O-].[Na+] (relative stereo)	S. aureus 011GO66 (PeniR)	µg/mL	1.2

# returns recorded MIC of Piperacillin in combination with the compound (system: S. aureus 011GO66 (PeniR)) for O=C(NCCc1ccncc1)[C@H]1CC[C@@H]2CN1C(=O)N2OS(=O)(=O)[O-].[Na+] (relative stereo)
0.6

----------
molecular target: β-lactamase P99 (Enterobacter cloacae, UniProt P05364); construct: The β-lactamases are isolated from bacterial strains which are resistant to penicillins and cephalosporins; endogenous in cells; host or cells: Enterobacter cloacae 293HT6 (natural producer; French-press lysate, 100,000 g supernatant); assay: biochemical; settings: 100 μM Nitrocefin, 50 mM sodium phosphate buffer pH7.0, 37° C.; read-out: IC50 nM/P99
Sequence (P05364 21-381): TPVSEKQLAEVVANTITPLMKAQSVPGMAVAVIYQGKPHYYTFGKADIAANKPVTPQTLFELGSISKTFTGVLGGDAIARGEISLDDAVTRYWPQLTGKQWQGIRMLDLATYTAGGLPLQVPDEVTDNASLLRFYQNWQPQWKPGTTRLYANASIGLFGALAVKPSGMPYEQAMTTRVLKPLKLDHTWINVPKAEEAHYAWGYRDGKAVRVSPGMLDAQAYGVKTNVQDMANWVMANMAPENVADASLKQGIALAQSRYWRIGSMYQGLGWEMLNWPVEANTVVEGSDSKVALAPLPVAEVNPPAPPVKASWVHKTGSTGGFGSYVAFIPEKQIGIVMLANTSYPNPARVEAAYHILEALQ
Quantity kind: IC50 (nM)
State the answer as a number, implicitly in nM.

Completed entries (count: 5):
Compound	IC50 [nM]
NC(=O)Nc1cccc(NC(=O)[C@H]2CC[C@@H]3CN2C(=O)N3OS(=O)(=O)[O-])c1.[Na+] (relative stereo)	70
O=C1N2CC=CC(C2)N1OS(=O)(=O)O (centres unmarked)	5900
O=C(NCc1ccccc1)[C@@H]1CC[C@@H]2CN1C(=O)N2C(=O)c1ccccc1 (relative stereo) [Example 29d]	2000
O=C(OCc1ccccc1)[C@H]1C[C@@H]2CN1C(=O)N2C(=O)c1ccccc1 (relative stereo)	17
O=C(OCc1ccccc1)C1CCC2CN1C(=O)N2OS(=O)(=O)c1cccs1 (centres unmarked) [Example 28d]	390

Endpoint output: IC50 of O=C(OCc1ccccc1)C1CCC2CN1C(=O)N2OS(=O)(=O)O (centres unmarked) [Example 28b] . Value?
12

For the compound O=C(C[C@@H]1CCN2C[C@H]1OC2=O)OC(c1ccccc1)c1ccccc1 (relative stereo) , what IC50 is on record?
9800

For O=C(OCc1ccccc1)[C@@H]1C[C@@H]2CN1C(=O)N2OS(=O)(=O)O (relative stereo) , what is its reported IC50?
1.5
